TARGET_SYSTEM: T1, Human CD3eg linker (human)
T1 construct: Single-chain construct; also called recombinant human CD3
T1 chain: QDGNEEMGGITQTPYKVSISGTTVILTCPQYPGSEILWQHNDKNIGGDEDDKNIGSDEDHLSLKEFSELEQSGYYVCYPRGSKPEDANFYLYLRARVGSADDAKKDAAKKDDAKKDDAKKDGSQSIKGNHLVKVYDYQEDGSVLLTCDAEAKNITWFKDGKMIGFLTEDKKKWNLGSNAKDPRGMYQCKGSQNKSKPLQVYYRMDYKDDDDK
ASSAY_SUMMARY: SPR; fold vs parent H183/L072
Quick rule for you: fold change of affinity at 0.3 fold or higher means met, lower means not met.

1. H183/L072 VL F55G (antibody, name in Kabat numbering, V domains shown) VH: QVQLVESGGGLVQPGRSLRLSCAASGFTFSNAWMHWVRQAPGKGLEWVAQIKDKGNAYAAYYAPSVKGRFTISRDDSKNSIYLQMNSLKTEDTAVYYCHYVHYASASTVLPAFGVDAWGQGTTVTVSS VL: DIVMTQSPLSLPVTPGEPASISCQASQELVHMNRNTYLHWYQQKPGQAPRLLIYKVSNRGPGVPDRFSGSGSGTDFTLKISRVEAEDVGVYYCAQGTSVPFTFGQGTKLEIK
met
2. H183/L072 VL T92R (antibody, name in Kabat numbering, V domains shown) VH: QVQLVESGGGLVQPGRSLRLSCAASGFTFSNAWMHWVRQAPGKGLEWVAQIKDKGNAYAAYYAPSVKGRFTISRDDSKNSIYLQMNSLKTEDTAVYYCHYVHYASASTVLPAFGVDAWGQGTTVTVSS VL: DIVMTQSPLSLPVTPGEPASISCQASQELVHMNRNTYLHWYQQKPGQAPRLLIYKVSNRFPGVPDRFSGSGSGTDFTLKISRVEAEDVGVYYCAQGRSVPFTFGQGTKLEIK
met
3. H183/L072 VL P95T (antibody, name in Kabat numbering, V domains shown) VH: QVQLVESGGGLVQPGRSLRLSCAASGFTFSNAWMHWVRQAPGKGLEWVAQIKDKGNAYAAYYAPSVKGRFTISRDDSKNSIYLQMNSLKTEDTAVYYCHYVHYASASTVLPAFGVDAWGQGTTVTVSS VL: DIVMTQSPLSLPVTPGEPASISCQASQELVHMNRNTYLHWYQQKPGQAPRLLIYKVSNRFPGVPDRFSGSGSGTDFTLKISRVEAEDVGVYYCAQGTSVTFTFGQGTKLEIK
not met
4. H183/L072 VL F55A (antibody, name in Kabat numbering, V domains shown) VH: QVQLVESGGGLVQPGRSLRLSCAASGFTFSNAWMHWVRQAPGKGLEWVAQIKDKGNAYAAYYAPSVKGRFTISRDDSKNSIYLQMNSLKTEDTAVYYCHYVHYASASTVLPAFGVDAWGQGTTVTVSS VL: DIVMTQSPLSLPVTPGEPASISCQASQELVHMNRNTYLHWYQQKPGQAPRLLIYKVSNRAPGVPDRFSGSGSGTDFTLKISRVEAEDVGVYYCAQGTSVPFTFGQGTKLEIK
met
